test system: 126254-015-R-J1-PDC complex spheroid growth, % test/control; assay: Anticancer human tumor 126254-015-R-J1-PDC patient-derived soft tissue sarcoma cell line growth inhibition [Asc]; conditions: second compound 1 µM; first compound 0.3 µM; active = viability on the fitted dose curve at most 10% of control; inactive = the rest
Your reply should match one of these outcome classes. active, inactive

What did the test return for NC(=O)C(=Cn1cnc(-c2cc(C(F)(F)F)cc(C(F)(F)F)c2)n1)c1cncnc1 + CNC(C)C(=O)NC1CN(S(=O)(=O)c2cccc(S(=O)(=O)N3CCC4CCC(C(=O)NC(c5ccccc5)c5ccccc5)N4C(=O)C(NC(=O)C(C)NC)C3)c2)CCC2CCC(C(=O)NC(c3ccccc3)c3ccccc3)N2C1=O ? active

What did the test return for NC(=O)C(=Cn1cnc(-c2cc(C(F)(F)F)cc(C(F)(F)F)c2)n1)c1cncnc1 + Cc1c(S(C)(=O)=O)c(-c2cc(F)cc(N3CCN(c4ccc(NS(=O)(=O)c5ccc(NC(CCN6CCC(C(=O)OCCCP(=O)(O)O)CC6)CSc6ccccc6)c(S(=O)(=O)C(F)(F)F)c5)cc4)CC3)c2)c(-c2ccc(Cl)cc2)n1C(C)C ? active

What did the test return for CCN1C(C(=O)NC23CCC(C(=O)O)(CC2)CC3)C(c2cccc(Cl)c2F)C2(C(=O)Nc3cc(Cl)ccc32)C12CCCCC2 (stereo unspecified) + Cc1c(S(C)(=O)=O)c(-c2cc(F)cc(N3CCN(c4ccc(NS(=O)(=O)c5ccc(NC(CCN6CCC(C(=O)OCCCP(=O)(O)O)CC6)CSc6ccccc6)c(S(=O)(=O)C(F)(F)F)c5)cc4)CC3)c2)c(-c2ccc(Cl)cc2)n1C(C)C ? inactive

What did the test return for Cc1nc(N2CCC3(CC2)COC(C)C3N)c(CO)nc1Sc1ccnc(N)c1Cl (stereo unspecified) + Cc1c(S(C)(=O)=O)c(-c2cc(F)cc(N3CCN(c4ccc(NS(=O)(=O)c5ccc(NC(CCN6CCC(C(=O)OCCCP(=O)(O)O)CC6)CSc6ccccc6)c(S(=O)(=O)C(F)(F)F)c5)cc4)CC3)c2)c(-c2ccc(Cl)cc2)n1C(C)C ? inactive

What did the test return for Cc1nc(N2CCC3(CC2)COC(C)C3N)c(CO)nc1Sc1ccnc(N)c1Cl (stereo unspecified) + CNC(C)C(=O)NC1CN(S(=O)(=O)c2cccc(S(=O)(=O)N3CCC4CCC(C(=O)NC(c5ccccc5)c5ccccc5)N4C(=O)C(NC(=O)C(C)NC)C3)c2)CCC2CCC(C(=O)NC(c3ccccc3)c3ccccc3)N2C1=O ? inactive

What did the test return for CCN1C(C(=O)NC23CCC(C(=O)O)(CC2)CC3)C(c2cccc(Cl)c2F)C2(C(=O)Nc3cc(Cl)ccc32)C12CCCCC2 (stereo unspecified) + CNC(C)C(=O)NC1CN(S(=O)(=O)c2cccc(S(=O)(=O)N3CCC4CCC(C(=O)NC(c5ccccc5)c5ccccc5)N4C(=O)C(NC(=O)C(C)NC)C3)c2)CCC2CCC(C(=O)NC(c3ccccc3)c3ccccc3)N2C1=O ? inactive

* * *

system: 126254-015-R-J1-PDC complex spheroid growth, % test/control; test: Anticancer human tumor 126254-015-R-J1-PDC cell line growth inhibition [Asc]; conditions: second compound 1 µM; first compound 10 µM; stronger effect = lower value;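 also: spheroids exposed to compound for seven days; 100% = DMSO vehicle control wells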
outcomeMeasure: viability, T/C (%)
Provide the reading as a plain figure in %.

// lookup viability, T/C for C=CC(=O)N1CCN(c2nc(=O)n(-c3c(C)ccnc3C(C)C)c3nc(-c4c(O)cccc4F)c(F)cc23)C(C)C1 (stereo not drawn) + CNC(C)C(=O)NC1CN(S(=O)(=O)c2cccc(S(=O)(=O)N3CCC4CCC(C(=O)NC(c5ccccc5)c5ccccc5)N4C(=O)C(NC(=O)C(C)NC)C3)c2)CCC2CCC(C(=O)NC(c3ccccc3)c3ccccc3)N2C1=O 65.5

// lookup viability, T/C for C#Cc1c(F)ccc2cc(O)cc(-c3ncc4c(N5CC6CCC(C5)N6)nc(OCC56CCCN5CC(F)C6)nc4c3F)c12 (stereo not drawn) + Cc1c(S(C)(=O)=O)c(-c2cc(F)cc(N3CCN(c4ccc(NS(=O)(=O)c5ccc(NC(CCN6CCC(C(=O)OCCCP(=O)(O)O)CC6)CSc6ccccc6)c(S(=O)(=O)C(F)(F)F)c5)cc4)CC3)c2)c(-c2ccc(Cl)cc2)n1C(C)C 37.4

// lookup viability, T/C for C#Cc1c(F)ccc2cc(O)cc(-c3ncc4c(N5CC6CCC(C5)N6)nc(OCC56CCCN5CC(F)C6)nc4c3F)c12 (stereo not drawn) + CNC(C)C(=O)NC1CN(S(=O)(=O)c2cccc(S(=O)(=O)N3CCC4CCC(C(=O)NC(c5ccccc5)c5ccccc5)N4C(=O)C(NC(=O)C(C)NC)C3)c2)CCC2CCC(C(=O)NC(c3ccccc3)c3ccccc3)N2C1=O 40.9

// lookup viability, T/C for C=C(F)C(=O)N1CCN(c2nc(OCC3CCCN3C)nc3c2CCN(c2cccc4cccc(Cl)c24)C3)CC1CC#N (stereo not drawn) + CNC(C)C(=O)NC1CN(S(=O)(=O)c2cccc(S(=O)(=O)N3CCC4CCC(C(=O)NC(c5ccccc5)c5ccccc5)N4C(=O)C(NC(=O)C(C)NC)C3)c2)CCC2CCC(C(=O)NC(c3ccccc3)c3ccccc3)N2C1=O 0.2

// lookup viability, T/C for O=C(c1cc(Cc2n[nH]c(=O)c3ccccc23)ccc1F)N1CCN(C(=O)C2CC2)CC1 + Cc1c(S(C)(=O)=O)c(-c2cc(F)cc(N3CCN(c4ccc(NS(=O)(=O)c5ccc(NC(CCN6CCC(C(=O)OCCCP(=O)(O)O)CC6)CSc6ccccc6)c(S(=O)(=O)C(F)(F)F)c5)cc4)CC3)c2)c(-c2ccc(Cl)cc2)n1C(C)C 45.8

// lookup viability, T/C for C=CC(=O)N1CCN(c2nc(=O)n(-c3c(C)ccnc3C(C)C)c3nc(-c4c(O)cccc4F)c(F)cc23)C(C)C1 (stereo not drawn) + Cc1c(S(C)(=O)=O)c(-c2cc(F)cc(N3CCN(c4ccc(NS(=O)(=O)c5ccc(NC(CCN6CCC(C(=O)OCCCP(=O)(O)O)CC6)CSc6ccccc6)c(S(=O)(=O)C(F)(F)F)c5)cc4)CC3)c2)c(-c2ccc(Cl)cc2)n1C(C)C 77.6

// lookup viability, T/C for O=C(c1cc(Cc2n[nH]c(=O)c3ccccc23)ccc1F)N1CCN(C(=O)C2CC2)CC1 + CNC(C)C(=O)NC1CN(S(=O)(=O)c2cccc(S(=O)(=O)N3CCC4CCC(C(=O)NC(c5ccccc5)c5ccccc5)N4C(=O)C(NC(=O)C(C)NC)C3)c2)CCC2CCC(C(=O)NC(c3ccccc3)c3ccccc3)N2C1=O 22.2

// lookup viability, T/C for C=C(F)C(=O)N1CCN(c2nc(OCC3CCCN3C)nc3c2CCN(c2cccc4cccc(Cl)c24)C3)CC1CC#N (stereo not drawn) + Cc1c(S(C)(=O)=O)c(-c2cc(F)cc(N3CCN(c4ccc(NS(=O)(=O)c5ccc(NC(CCN6CCC(C(=O)OCCCP(=O)(O)O)CC6)CSc6ccccc6)c(S(=O)(=O)C(F)(F)F)c5)cc4)CC3)c2)c(-c2ccc(Cl)cc2)n1C(C)C 0.14
